The measured values listed here are drawn from paper PMC9849758.

Molecular target: Trypsin-3 (Homo sapiens)
Sequence (P35030 1-304): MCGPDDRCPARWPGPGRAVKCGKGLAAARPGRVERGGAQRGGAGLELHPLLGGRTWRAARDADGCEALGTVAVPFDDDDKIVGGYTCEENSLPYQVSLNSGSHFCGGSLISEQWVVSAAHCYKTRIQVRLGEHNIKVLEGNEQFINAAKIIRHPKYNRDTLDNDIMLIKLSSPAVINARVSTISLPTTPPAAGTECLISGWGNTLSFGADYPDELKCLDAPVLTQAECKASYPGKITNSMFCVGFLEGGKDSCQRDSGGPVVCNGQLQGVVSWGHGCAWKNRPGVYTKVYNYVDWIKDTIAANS
Assay: Jump dilution, determination of inhibition type
Format: biochemical
Set-up: purchased R&D
Conditions: inhibitor at 10 times IC50, 15 min, diluted 10-fold or 100-fold; Rev./Irrev.

- molecule: "C[C@@H]1NC(=O)N[C@@H]1CCCCCC(=O)NCCOCCOCCOCCn1cc(CCCOC(=O)NC(CCCNC(=N)N)P(=O)(Oc2ccccc2)Oc2ccccc2)nn1 (stereo partly shown) [45b]"
  Trypsin-3 jump dilution result: "Irrev."
- molecule: "C#CCCCOC(=O)NC(c1ccc(NC(=N)N)cc1)P(=O)(Oc1ccc(Cl)cc1)Oc1ccc(Cl)cc1 (stereo not shown) [39b]"
  Trypsin-3 jump dilution result: "Irrev."
- molecule: "C#CCCCOC(=O)NC(Cc1ccc(NC(=N)N)cc1)P(=O)(Oc1ccc(Cl)cc1)Oc1ccc(Cl)cc1 (stereo not shown) [36b]"
  Trypsin-3 jump dilution result: "Rev."
- molecule: "C[C@@H]1NC(=O)N[C@@H]1CCCCCC(=O)NCCOCCOCCOCCn1cc(CCCOC(=O)NC(CCCNC(=N)N)P(=O)(Oc2ccc(Cl)cc2)Oc2ccc(Cl)cc2)nn1 (stereo partly shown) [46b]"
  Trypsin-3 jump dilution result: "Irrev."
